The entries below come with measured Emax at 30 µM values attached.
Target: human GLP-1R (Homo sapiens (Human), UniProt P43220)
Sequence (P43220 24-463): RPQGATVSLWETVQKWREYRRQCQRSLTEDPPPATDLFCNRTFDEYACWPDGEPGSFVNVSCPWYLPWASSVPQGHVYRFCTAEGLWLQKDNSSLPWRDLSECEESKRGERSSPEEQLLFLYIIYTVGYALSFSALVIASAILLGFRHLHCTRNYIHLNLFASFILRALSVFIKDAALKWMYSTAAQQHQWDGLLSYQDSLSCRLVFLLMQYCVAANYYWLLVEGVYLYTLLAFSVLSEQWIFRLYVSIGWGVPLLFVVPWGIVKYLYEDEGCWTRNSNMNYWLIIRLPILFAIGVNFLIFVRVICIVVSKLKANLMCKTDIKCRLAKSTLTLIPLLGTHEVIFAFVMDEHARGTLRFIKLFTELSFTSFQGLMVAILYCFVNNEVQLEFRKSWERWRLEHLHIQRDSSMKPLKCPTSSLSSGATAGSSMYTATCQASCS
Experiment: GLP-1 assay with GLP1 endogenous agonist (calcium mobilization, EC20 GLP-1 peptide 7-36 amide)
Assay type: cell-based
Details: 30 μM compound; EC20 of GLP-1 7-36 amide; calcium flux
State the answer as a number, implicitly in %.

Here are 4 compounds together with their reported answers.
compound="Cc1c2ccccc2n2c(C(=O)NC[C@@H]3CCCN3C(C)C)cn(-c3ccccc3)c(=O)c12 [Compound 14]" numeric_result=45
compound="Cc1c2n(c3ccccc13)[C@@H](C(=O)NC[C@@H]1CCCN1C(C)C)CN(C1CCCC1)C2=O [Compound 8]" numeric_result=56
compound="Cc1c2n(c3ccccc13)[C@H](C(=O)NC[C@@H]1CCCN1C(C)C)CN(C1CCCC1)C2=O [Compound 9]" numeric_result=40
compound="Cc1c2ccccc2n2c(C(=O)NC[C@@H]3CCCN3C(C)C)cn([C@H]3CCOC3)c(=O)c12 [Compound 4]" numeric_result=52

Reported human GLP-1R (Homo sapiens (Human), UniProt P43220) Emax at 30 µM for item Cc1c2n(c3ccccc13)C(C(=O)NC[C@@H]1CCCN1C(C)C)CN(C1CCCC1)C2=O (some centres unmarked) [Compound 3] was 50

====

Molecular target: human GLP-1R (Homo sapiens (Human), UniProt P43220)
Assay: GLP-1 assay with EX-4 synthetic agonist (calcium mobilization, EC20 EX-4)
Format: cell-based
Conditions: potentiation of EC20 EX-4; calcium flux; read-out: GLP1 EC50 (Ex-4 synthetic agonist)
Text: B. GLP-1 Assay with EX-4 Synthetic Agonist To assess the effects of test compounds on GLP-1 or glucagon potency and efficacy, a high-throughput calcium mobilization assay was used essentially as previously described (Morris L C, Days E L, Turney M, Mi D, Lindsley C W, Weaver C D, Niswender K D, A Duplexed High-Throughput Screen to Identify Allosteric Modulators of the Glucagon-Like Peptide 1 and Glucagon Receptors. J. Biomol. Screen. 2014 Feb. 13, 19(6):847-858). […]
pEC50: −log10 of the molar value.
readout.label: pEC50

Per the record, Cc1c2cc(F)ccc2n2c(C(=O)NC[C@H]3CCCN3C(C)C)cn(C3CCCC3)c(=O)c12 [Compound 7] has pEC50 of < 4.52

Per the record, CC(C)N1CCC[C@@H]1CNC(=O)c1cn(C2CCCC2)c(=O)c2c(Cl)c3ccccc3n12 [Compound 11] has pEC50 of < 4.52

Per the record, CC(C)N1CCC[C@@H]1CNC(=O)c1cn(C2CCCC2)c(=O)c2c(Br)c3ccccc3n12 [Compound 13] has pEC50 of < 4.52
